src = patent US7998987B2

- testedOn: c-Met (Homo sapiens)
- Sequence (P08581 25-1390): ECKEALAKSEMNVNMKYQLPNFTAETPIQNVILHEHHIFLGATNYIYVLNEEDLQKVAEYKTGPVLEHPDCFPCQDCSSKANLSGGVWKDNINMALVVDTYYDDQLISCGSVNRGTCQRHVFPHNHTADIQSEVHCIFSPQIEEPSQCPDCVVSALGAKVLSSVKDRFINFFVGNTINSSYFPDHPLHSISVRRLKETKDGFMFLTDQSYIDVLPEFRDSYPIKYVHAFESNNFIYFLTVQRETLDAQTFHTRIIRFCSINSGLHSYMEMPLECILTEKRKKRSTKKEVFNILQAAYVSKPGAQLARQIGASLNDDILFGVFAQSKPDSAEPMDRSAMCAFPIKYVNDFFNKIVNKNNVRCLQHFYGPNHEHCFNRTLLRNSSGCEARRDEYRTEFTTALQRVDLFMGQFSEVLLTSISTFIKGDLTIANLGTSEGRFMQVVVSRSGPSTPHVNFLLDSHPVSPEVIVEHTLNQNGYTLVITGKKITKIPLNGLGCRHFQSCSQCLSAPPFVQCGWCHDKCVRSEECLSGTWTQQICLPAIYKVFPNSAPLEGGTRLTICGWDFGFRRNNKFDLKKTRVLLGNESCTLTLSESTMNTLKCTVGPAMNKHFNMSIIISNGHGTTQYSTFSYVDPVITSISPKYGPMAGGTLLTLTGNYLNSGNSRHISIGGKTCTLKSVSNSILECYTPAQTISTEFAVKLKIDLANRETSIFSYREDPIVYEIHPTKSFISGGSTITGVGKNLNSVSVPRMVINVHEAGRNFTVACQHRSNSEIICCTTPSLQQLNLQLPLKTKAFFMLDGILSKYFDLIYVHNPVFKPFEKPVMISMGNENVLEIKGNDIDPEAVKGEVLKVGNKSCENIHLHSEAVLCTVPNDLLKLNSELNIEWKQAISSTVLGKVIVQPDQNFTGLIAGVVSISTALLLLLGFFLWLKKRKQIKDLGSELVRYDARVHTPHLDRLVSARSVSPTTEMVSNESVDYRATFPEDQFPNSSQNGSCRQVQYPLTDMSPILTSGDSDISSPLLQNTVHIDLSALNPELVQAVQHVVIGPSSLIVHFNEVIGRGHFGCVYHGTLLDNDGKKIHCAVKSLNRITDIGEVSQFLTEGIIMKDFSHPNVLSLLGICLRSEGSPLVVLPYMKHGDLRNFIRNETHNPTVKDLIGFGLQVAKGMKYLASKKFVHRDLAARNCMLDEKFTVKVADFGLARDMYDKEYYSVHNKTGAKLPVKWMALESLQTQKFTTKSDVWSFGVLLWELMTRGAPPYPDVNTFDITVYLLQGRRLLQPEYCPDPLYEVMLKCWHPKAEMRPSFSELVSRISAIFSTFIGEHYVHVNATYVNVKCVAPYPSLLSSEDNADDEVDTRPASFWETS
- experimentalProtocol: Ki determination for the inhibition of c-Met kinase activity (standard coupled enzyme system)
- Assay type: biochemical
- protocolConditions: coupled enzyme system, 200 μM ATP, 80 nM c-Met, 30° C.; read-out: c-Met Ki
assayMetric: Ki

Input line: Which Ki value is on record for `C[C@@H](c1ccc(O)cc1)c1nnc2ccc(Nc3ccc(F)c(Cl)c3)nn12` ?
Output line: < 100 nM

Input line: Quick one: Ki for `COCCC(=O)N[C@@H]1CCCC[C@@H]1Nc1ccc2nnc([C@@H](C)c3ccc(O)cc3)n2n1` ?
Output line: > 2000 nM

Input line: Query: Ki; subject: `Clc1cccc(Nc2ccc3nnc(Cn4ccc5cccnc54)n3n2)c1`
Output line: > 2000 nM

Input line: Would you mind telling me what Ki value was observed for `NC(=O)c1cc(Cc2nnc3ccc(Nc4cccc(Cl)c4)nn23)ccc1F` ?
Output line: > 2000 nM

Input line: Given `COc1ccc(OC)c(NCc2nnc3ccc(Nc4cccc(Cl)c4)nn23)c1` , state its recorded Ki.
Output line: > 2000 nM

Input line: Suppose we examine the compound `Cc1ccc(Cl)cc1Nc1ccc2nnc(Cc3ccc(O)cc3)n2n1` ; what Ki value has been reported?
Output line: < 100 nM

Input line: State the recorded Ki for this entry: `Clc1cccc(Nc2ccc3nnc(COc4cccnc4Cl)n3n2)c1`
Output line: 100 to 2000 nM

Input line: Consider the compound C[C@@H](c1ccc(O)cc1)c1nnc2ccc(NC3CC4CCC3C4)nn12 (stereo partly drawn) and give its measured Ki.
Output line: < 100 nM

Input line: Give its Ki value. Item: `Clc1cccc(Nc2ccc3nnc(Cn4ccc5cncnc54)n3n2)c1`
Output line: > 2000 nM

Input line: Report Ki for `O=C(Cc1ccccc1)N1CCC(Nc2ccc3nnc(Cc4ccc(O)cc4)n3n2)CC1` please.
Output line: 100 to 2000 nM

Input line: Please give the measured Ki for this compound: `C[C@@H](c1ccc(O)cc1)c1nnc2ccc(Nc3nc4ccc(Cl)cc4s3)nn12`
Output line: < 100 nM

Input line: What does the record list as Ki for `CC(=O)N1CCC(Nc2ccc3nnc(Cc4ccc(O)cc4)n3n2)CC1` ?
Output line: 100 to 2000 nM

Input line: Give its Ki value. Item: `Nc1ccc(Cc2nnc3ccc(Nc4cccc(Cl)c4)nn23)cc1`
Output line: > 2000 nM

Input line: Quick one: Ki of `CC(=O)N[C@@H]1CCCC[C@@H]1Nc1ccc2nnc([C@@H](C)c3ccc(O)cc3)n2n1` ?
Output line: 100 to 2000 nM

Input line: Which measured Ki value corresponds to `CC(=O)Nc1ccc2nnc(Cc3ccc(O)cc3)n2n1` ?
Output line: > 2000 nM

Input line: Look up Ki: `Oc1ccc(C2(c3nnc4ccc(Nc5ccnc(Cl)c5)nn34)CC2)cc1`
Output line: < 100 nM

Input line: Fill blank: measured Ki of the compound `Fc1ccc(SCc2nnc3ccc(Nc4cccc(Cl)c4)nn23)cc1` is ____.
Output line: > 2000 nM

Input line: Which Ki value is on record for `Clc1cccc(Nc2ccc3nnc(Cc4c[nH]c5ccccc45)n3n2)c1` ?
Output line: > 2000 nM
